These entries and their values trace back to patent US20150147384A1.

- protocol: Hydrophobic drug uptake and release (Nile red)
- Format: physicochemical
- condition: Nile red in peptide nanovesicles, PBS pH 7.4
No end group written: not given here.
observation_type: Nile red emission maxima (nm)
Provide only the numeric value, understood in nm.

KAAAAAA-NH2 [KA6-CONH2] :: 623
DAAAAAA-OH [DA6-COOH] :: 647
acetyl-AAAAAAD-COOH (Ac-AAAAAAD-OH) [Ac-A6D-COOH, amphiphilic surfactant-like self-assembling peptide forming nanovesicles] :: 626

Measured Nile red emission maxima, acetyl-AAAAAAK-CONH2 (Ac-AAAAAAK-NH2) [Ac-A6K-CONH2, amphiphilic surfactant-like self-assembling peptide forming nanovesicles] : 631

====

- protocol: Microelectrophoretic mobility (ζ-potential) measurements
- Assay type: physicochemical
- condition: PBS pH 7.4, 20 mg/mL peptide
No end group written: not given here.
observation_type: ζ-potential (mV)
Answer with a number only, understood to be in mV.

Example cases with answers are listed next.
KAAAAAA-NH2 [KA6-CONH2] :: 12.4
acetyl-AAAAAAD-COOH (Ac-AAAAAAD-OH) [Ac-A6D-COOH, amphiphilic surfactant-like self-assembling peptide forming nanovesicles] :: −15.4
acetyl-AAAAAAK-CONH2 (Ac-AAAAAAK-NH2) [Ac-A6K-CONH2, amphiphilic surfactant-like self-assembling peptide forming nanovesicles] :: 8.5

Now, please, on to the next substance.
Short answer for DAAAAAA-OH [DA6-COOH] : ζ-potential was −14.0

====

Here the recorded Vesicle diameter, DLS analysis is given for each entry.
- protocol: Particle size determination by DLS
- Format: physicochemical
- condition: PBS pH 7.4, 25° C.
No end group written: not given here.

Example entries begin here.
DAAAAAA-OH [DA6-COOH] :: 137 (64-725) nm
acetyl-AAAAAAD-COOH (Ac-AAAAAAD-OH) [Ac-A6D-COOH, amphiphilic surfactant-like self-assembling peptide forming nanovesicles] :: 97 (30-320) nm
acetyl-AAAAAAK-CONH2 (Ac-AAAAAAK-NH2) [Ac-A6K-CONH2, amphiphilic surfactant-like self-assembling peptide forming nanovesicles] :: 122 (30-173) nm

The substance listed as KAAAAAA-NH2 [KA6-CONH2] shows Vesicle diameter, DLS analysis equal to 164 (65-350) nm

====

- protocol: AFM imaging of peptide nanovesicles on mica
- Format: physicochemical
- condition: individual nanovesicles, dry state on mica
- Description: For the AFM experiments, 3 uL were removed from the peptide vesicle dispersions (20 mg/mL of peptides in PBS that has been filtered through 0.2 um filters) and deposited on a freshly cleaved mica surface (G250-2 mica sheets 2.5×2.5×0.015 cm; Agar Scientific Ltd, Essex, UK). The bare surface of mica is smooth (rms is about 0.4 nm). Before imaging, each sample was left on mica for 1 min, rinsed with 200 uL of water (Millipore), and dried in a nitrogen gas stream. […]
No end group written: not given here.
Documented Vesicle diameter, AFM analysis across a set of substances

Below, each entry is followed by its recorded Vesicle diameter, AFM analysis result.
KAAAAAA-NH2 [KA6-CONH2] :: 169 ± 29 nm
DAAAAAA-OH [DA6-COOH] :: 43 ± 11 nm
acetyl-AAAAAAK-CONH2 (Ac-AAAAAAK-NH2) [Ac-A6K-CONH2, amphiphilic surfactant-like self-assembling peptide forming nanovesicles] :: 126 ± 23 nm

Next substance, please.
// field: Vesicle diameter, AFM analysis; key: acetyl-AAAAAAD-COOH (Ac-AAAAAAD-OH) [Ac-A6D-COOH, amphiphilic surfactant-like self-assembling peptide forming nanovesicles] ; value = 28 ± 9 nm

====

- protocol: Critical micelle concentration (CMC) by Dynamic Light Scattering
- Assay type: physicochemical
No end group written: not given here.
observation_type: CMC in PBS (mg/mL)
Answer format: numeric, mg/mL implied, no suffix.

acetyl-AAAAAAK-CONH2 (Ac-AAAAAAK-NH2) [Ac-A6K-CONH2, amphiphilic surfactant-like self-assembling peptide forming nanovesicles] :: 0.16

KAAAAAA-NH2 [KA6-CONH2] has a reported CMC in PBS of 0.07

Consider acetyl-AAAAAAD-COOH (Ac-AAAAAAD-OH) [Ac-A6D-COOH, amphiphilic surfactant-like self-assembling peptide forming nanovesicles] . Its measured CMC in PBS is 0.05

Entry under test: DAAAAAA-OH [DA6-COOH] . Its CMC in PBS was 0.12

====

- System: Caco-2 cell monolayers
- protocol: FITC-dextran 4.4 kDa permeability through Caco-2 monolayer
- condition: 1.0 mg/ml peptide; R=Papp(peptide)/Papp(control)
No end group written: not given here.
observation_type: Enhancement ratio (FITC-dextran)
Answer using only a numeral; do not append any unit.

acetyl-AAAAAAD-COOH (Ac-AAAAAAD-OH) [Ac-A6D-COOH] :: 7.9

// Enhancement ratio (FITC-dextran) lookup, substance = DAAAAAA-OH [DA6-COOH] , result: 6.6

Query acetyl-AAAAAAK-CONH2 (Ac-AAAAAAK-NH2) [Ac-A6K-CONH2] yields Enhancement ratio (FITC-dextran) of 5.7

Form field Enhancement ratio (FITC-dextran), entry KAAAAAA-NH2 [KA6-CONH2] : 5.1
